System: ATP;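 note: ATP exposure 15 min at 22 °C before imaging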
Assay: switch fluorescence ratio, 500 uM ATP over buffer (Cy3 cluster intensity, sum of 5 cycles each) (fold (ratio)); higher = stronger signal-on switching upon ATP binding; sequences stand for … in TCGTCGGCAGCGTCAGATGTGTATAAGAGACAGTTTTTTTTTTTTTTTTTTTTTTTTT…TC
Conditions: aptamer strand: ATP DNA aptamer (quencher-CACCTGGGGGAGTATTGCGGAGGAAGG + anchor), 100 nM annealed; ATP concentration: 500 uM
The reader will find reported switch fluorescence ratio values listed item by item below.
propertyLabel: switch fluorescence ratio

itemSequence: CCATAGGTCC
targetOrSystem: ATP;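 note: ATP exposure 15 min at 22 °C before imaging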
propertyLabel: switch fluorescence ratio
assayValue: 1.02
--
itemSequence: TACGGGGTCA
targetOrSystem: ATP;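 note: ATP exposure 15 min at 22 °C before imaging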
propertyLabel: switch fluorescence ratio
assayValue: 0.971
--
itemSequence: TTGGGTCGGA
targetOrSystem: ATP;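 note: ATP exposure 15 min at 22 °C before imaging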
propertyLabel: switch fluorescence ratio
assayValue: 0.992
--
itemSequence: AACGGGGGTC
targetOrSystem: ATP;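 note: ATP exposure 15 min at 22 °C before imaging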
propertyLabel: switch fluorescence ratio
assayValue: 1
--
itemSequence: GAAGGAGGTT
targetOrSystem: ATP;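 note: ATP exposure 15 min at 22 °C before imaging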
propertyLabel: switch fluorescence ratio
assayValue: 1
--
itemSequence: TTTGTCTGTG
targetOrSystem: ATP;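 note: ATP exposure 15 min at 22 °C before imaging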
propertyLabel: switch fluorescence ratio
assayValue: 0.983
--
itemSequence: TTTTAGAGAG
targetOrSystem: ATP;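 note: ATP exposure 15 min at 22 °C before imaging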
propertyLabel: switch fluorescence ratio
assayValue: 0.997
--
itemSequence: CGGGGAGCTG
targetOrSystem: ATP;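 note: ATP exposure 15 min at 22 °C before imaging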
propertyLabel: switch fluorescence ratio
assayValue: 1.02
--
itemSequence: GGTAGTAGTA
targetOrSystem: ATP;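 note: ATP exposure 15 min at 22 °C before imaging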
propertyLabel: switch fluorescence ratio
assayValue: 1
--
itemSequence: ATGTGGTGCA
targetOrSystem: ATP;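 note: ATP exposure 15 min at 22 °C before imaging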
propertyLabel: switch fluorescence ratio
assayValue: 1.02
--
itemSequence: GAAGGTGGGG
targetOrSystem: ATP;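 note: ATP exposure 15 min at 22 °C before imaging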
propertyLabel: switch fluorescence ratio
assayValue: 0.992
--
itemSequence: CAATGGGATA
targetOrSystem: ATP;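 note: ATP exposure 15 min at 22 °C before imaging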
propertyLabel: switch fluorescence ratio
assayValue: 1.02
--
itemSequence: AGACGGTTTG
targetOrSystem: ATP;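 note: ATP exposure 15 min at 22 °C before imaging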
propertyLabel: switch fluorescence ratio
assayValue: 1.01
--
itemSequence: GGGCTTAAAA
targetOrSystem: ATP;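 note: ATP exposure 15 min at 22 °C before imaging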
propertyLabel: switch fluorescence ratio
assayValue: 0.984
--
itemSequence: TTATAGAGG
targetOrSystem: ATP;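 note: ATP exposure 15 min at 22 °C before imaging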
propertyLabel: switch fluorescence ratio
assayValue: 1.02
--
itemSequence: CTCGTAAACG
targetOrSystem: ATP;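 note: ATP exposure 15 min at 22 °C before imaging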
propertyLabel: switch fluorescence ratio
assayValue: 1
--
itemSequence: ACACGGGGTG
targetOrSystem: ATP;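 note: ATP exposure 15 min at 22 °C before imaging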
propertyLabel: switch fluorescence ratio
assayValue: 1.02
--
itemSequence: TTGTTATGTT
targetOrSystem: ATP;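 note: ATP exposure 15 min at 22 °C before imaging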
propertyLabel: switch fluorescence ratio
assayValue: 0.971
--
itemSequence: AGAGGGGAAG
targetOrSystem: ATP;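 note: ATP exposure 15 min at 22 °C before imaging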
propertyLabel: switch fluorescence ratio
assayValue: 1
--
itemSequence: CGGCTTAAGT
targetOrSystem: ATP;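 note: ATP exposure 15 min at 22 °C before imaging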
propertyLabel: switch fluorescence ratio
assayValue: 1.01
--
itemSequence: CGTCGGGGAA
targetOrSystem: ATP;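 note: ATP exposure 15 min at 22 °C before imaging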
propertyLabel: switch fluorescence ratio
assayValue: 1.02
--
itemSequence: TCAATAGGTT
targetOrSystem: ATP;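 note: ATP exposure 15 min at 22 °C before imaging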
propertyLabel: switch fluorescence ratio
assayValue: 1.01
--
itemSequence: GTGGGGGAGC
targetOrSystem: ATP;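 note: ATP exposure 15 min at 22 °C before imaging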
propertyLabel: switch fluorescence ratio
assayValue: 0.985
--
itemSequence: AAGACCGGCA
targetOrSystem: ATP;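 note: ATP exposure 15 min at 22 °C before imaging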
propertyLabel: switch fluorescence ratio
assayValue: 1.01
--
itemSequence: ATAGTAGGTA
targetOrSystem: ATP;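 note: ATP exposure 15 min at 22 °C before imaging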
propertyLabel: switch fluorescence ratio
assayValue: 0.991
--
itemSequence: AAAATGGTAA
targetOrSystem: ATP;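 note: ATP exposure 15 min at 22 °C before imaging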
propertyLabel: switch fluorescence ratio
assayValue: 1
--
itemSequence: TTATCATCTA
targetOrSystem: ATP;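 note: ATP exposure 15 min at 22 °C before imaging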
propertyLabel: switch fluorescence ratio
assayValue: 1.02
--
itemSequence: CTGTGGGCCG
targetOrSystem: ATP;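 note: ATP exposure 15 min at 22 °C before imaging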
propertyLabel: switch fluorescence ratio
assayValue: 1
--
itemSequence: AGTTGGGGCT
targetOrSystem: ATP;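 note: ATP exposure 15 min at 22 °C before imaging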
propertyLabel: switch fluorescence ratio
assayValue: 1.01
--
itemSequence: GGTAATTTTT
targetOrSystem: ATP;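 note: ATP exposure 15 min at 22 °C before imaging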
propertyLabel: switch fluorescence ratio
assayValue: 1.01
--
itemSequence: ATAGTGGGGG
targetOrSystem: ATP;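 note: ATP exposure 15 min at 22 °C before imaging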
propertyLabel: switch fluorescence ratio
assayValue: 0.975
--
itemSequence: TCGGGGGTCC
targetOrSystem: ATP;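 note: ATP exposure 15 min at 22 °C before imaging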
propertyLabel: switch fluorescence ratio
assayValue: 1
--
itemSequence: AATGGGTGTG
targetOrSystem: ATP;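 note: ATP exposure 15 min at 22 °C before imaging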
propertyLabel: switch fluorescence ratio
assayValue: 1.01
--
itemSequence: TCGTGAACGT
targetOrSystem: ATP;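 note: ATP exposure 15 min at 22 °C before imaging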
propertyLabel: switch fluorescence ratio
assayValue: 0.978
--
itemSequence: TTTCGTAAAA
targetOrSystem: ATP;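 note: ATP exposure 15 min at 22 °C before imaging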
propertyLabel: switch fluorescence ratio
assayValue: 1
--
itemSequence: CATCTGGGCC
targetOrSystem: ATP;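 note: ATP exposure 15 min at 22 °C before imaging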
propertyLabel: switch fluorescence ratio
assayValue: 1.01
--
itemSequence: AACGGGAAGA
targetOrSystem: ATP;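 note: ATP exposure 15 min at 22 °C before imaging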
propertyLabel: switch fluorescence ratio
assayValue: 1.02
--
itemSequence: AGCTGTGTGT
targetOrSystem: ATP;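 note: ATP exposure 15 min at 22 °C before imaging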
propertyLabel: switch fluorescence ratio
assayValue: 1.01
--
itemSequence: TTTTCAGGGT
targetOrSystem: ATP;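 note: ATP exposure 15 min at 22 °C before imaging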
propertyLabel: switch fluorescence ratio
assayValue: 1.01
--
itemSequence: GGCTTTGGAT
targetOrSystem: ATP;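 note: ATP exposure 15 min at 22 °C before imaging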
propertyLabel: switch fluorescence ratio
assayValue: 0.977
--
itemSequence: GAGGCTTAAG
targetOrSystem: ATP;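 note: ATP exposure 15 min at 22 °C before imaging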
propertyLabel: switch fluorescence ratio
assayValue: 1.01
--
itemSequence: GTGTTTAAAA
targetOrSystem: ATP;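 note: ATP exposure 15 min at 22 °C before imaging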
propertyLabel: switch fluorescence ratio
assayValue: 0.995
--
itemSequence: CGGGGAGTAA
targetOrSystem: ATP;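 note: ATP exposure 15 min at 22 °C before imaging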
propertyLabel: switch fluorescence ratio
assayValue: 1.01
--
itemSequence: CGGAGTTTTT
targetOrSystem: ATP;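 note: ATP exposure 15 min at 22 °C before imaging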
propertyLabel: switch fluorescence ratio
assayValue: 0.997
--
itemSequence: AGAAGATCTA
targetOrSystem: ATP;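 note: ATP exposure 15 min at 22 °C before imaging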
propertyLabel: switch fluorescence ratio
assayValue: 0.994
--
itemSequence: TTTTTCCGTG
targetOrSystem: ATP;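 note: ATP exposure 15 min at 22 °C before imaging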
propertyLabel: switch fluorescence ratio
assayValue: 0.982
--
itemSequence: ATGCGATCAA
targetOrSystem: ATP;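 note: ATP exposure 15 min at 22 °C before imaging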
propertyLabel: switch fluorescence ratio
assayValue: 1.02
--
itemSequence: TGTGTCGCGT
targetOrSystem: ATP;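 note: ATP exposure 15 min at 22 °C before imaging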
propertyLabel: switch fluorescence ratio
assayValue: 0.983
